Recorded concentration at 40 min values for a group of molecules are listed next.
- Test Details: Mouse blood levels after single intramuscular injection
- Assay type: in vivo, mice
- Condition: 40 mg/kg im, 40 minutes, read-out: Mouse Blood Level
Please provide the amount together with its unit, number first.

Example entries and their recorded answers appear below.
> print(dat)
                                   molecule        measurement.label  observed.result
1  CO/N=C(\C(=O)NC1C(=O)N2C(C(=O)[O-])=C(C[n+]3ccsc3SC)CS[C@H]12)c1csc(N)n1 (stereo partly drawn)  concentration at 40 min      32000 ng/mL
2  CSc1scc[n+]1CC1=C(C(=O)[O-])N2C(=O)C(NC(=O)/C(=N\OC3(C(=O)O)CCC3)c3csc(N)n3)[C@H]2SC1 (stereo partly drawn)  concentration at 40 min       7500 ng/mL

With those in mind, consider the next molecule.
Return value of concentration at 40 min for input CSc1scc[n+]1CC1=C(C(=O)[O-])N2C(=O)C(NC(=O)/C(=N\OC(C)(C)C(=O)O)c3csc(N)n3)[C@H]2SC1 (stereo partly drawn) , no commentary. 15000 ng/mL
